System: Fibroblast
method: Multiplex assay against human fibroblast
Assay type: toxicity, cell-based
test context: 24 h, 1 µM, compound concentration 1 uM, replicate 2
Exercise: for every item that follows, state its recorded Population Normal (%).

molecule: COc1cccc([C@@H](C)NCCCc2ccccc2Cl)c1.Cl [TECALCET HYDROCHLORIDE]
Population Normal (%): 91%
--
molecule: C[C@@H](NCCCc1cccc(C(F)(F)F)c1)c1cccc2ccccc12.Cl [CINACALCET HYDROCHLORIDE]
Population Normal (%): 92%
--
molecule: CC(C)(O)CNc1ncc(-c2ccnc(Nc3ccnc(Cl)c3)n2)c(CC2CC2)n1
Population Normal (%): 95%
--
molecule: CCN(CC)CCCCNc1ncc2cc(-c3cc(OC)cc(OC)c3)c(NC(=O)NC(C)(C)C)nc2n1
Population Normal (%): 27%
--
molecule: Cc1c(-c2ccc(O)cc2)n(Cc2ccc(OCCN3CCCCCC3)cc2)c2ccc(O)cc12
Population Normal (%): 96%
--
molecule: c1cn2cc(-c3ccc4cn[nH]c4c3)nc(Nc3ccc(N4CCOCC4)cc3)c2n1
Population Normal (%): 95%

Below are some molecules; for each one, tell me its Population Normal (%).
1. Cl.N#Cc1ccc2[nH]cc(CCCCN3CCN(c4ccc5oc(C(N)=O)cc5c4)CC3)c2c1 [VILAZODONE HYDROCHLORIDE]
2. CN(C)CC#Cc1ccc(OCCCc2sc(N3CCc4cccc(C(=O)Nc5nc6ccccc6s5)c4C3)nc2C(=O)O)c(F)c1
3. O=C1NCN(c2ccccc2)C12CCN(CCCOc1ccc(F)cc1)CC2 [SPIRAMIDE]
4. Cn1cc(-c2[nH]c3cc(NC(=O)[C@H](N)C4CCCCC4)cc4c3c2C=NNC4=O)cn1
5. CN(C)C(=O)/C(C#N)=C/c1ccc(-c2nc3cnc4[nH]ccc4c3n2C2CCCCC2)o1

["98%", "92%", "93%", "96%", "95%"]

Below are some molecules; for each one, tell me its Population Normal (%).
1. Cc1[nH]c(/C=C2\C(=O)Nc3ccc(S(=O)(=O)N(C)c4cccc(Cl)c4)cc32)c(C)c1C(=O)N1CCN(C)CC1
2. C=CC(=O)Nc1ccc2ncnc(Nc3ccc(OCc4cccc(F)c4)c(Cl)c3)c2c1.Cc1ccc(S(=O)(=O)O)cc1
3. Cc1nc(-c2ccc(-c3ccc(C(=O)N4CCc5cc6c(cc54)C4(CCN(C)CC4)CO6)cc3)c(C)c2)no1
4. Cc1nc(Nc2n[nH]c3c2CN(C(=O)N[C@H](CN(C)C)c2ccccc2)C3(C)C)c2sccc2n1
5. OC1(c2ccc(Cl)cc2)CCN(Cc2c[nH]c3ccccc23)CC1
6. C=CC(=O)Nc1cc2c(Nc3ccc(F)c(Cl)c3)ncnc2cc1OCCCN1CCOCC1.Cl.Cl [CANERTINIB DIHYDROCHLORIDE]
7. NC(=O)Nc1cc(-c2cccc(F)c2)sc1C(=O)N[C@H]1CCCNC1
8. CN1CCC[C@@H]1CCO[C@](C)(c1ccccc1)c1ccc(Cl)cc1.O=C(O)/C=C/C(=O)O [CLEMASTINE FUMARATE]

1: 91%; 2: 94%; 3: 90%; 4: 71%; 5: 91%; 6: 60%; 7: 73%; 8: 99%

Which Population Normal (%) value is on record for `C=CC(=O)Nc1cccc(C(=O)Nc2ccc(Nc3cc(-c4[nH]c(SC)nc4C)ccn3)cc2)c1` ? 95%

---

System: Fibroblast
method: Multiplex assay against human fibroblast
Type: toxicity, cell-based
test context: 24 h, 1 µM, compound concentration 1 uM, replicate 1
readout type: Population Healthy Nuclei (%)
Give bare numbers, in %.

compound: COc1cccc([C@@H](C)NCCCc2ccccc2Cl)c1.Cl [TECALCET HYDROCHLORIDE]
readout type: Population Healthy Nuclei (%)
observed: 50
//
compound: Cc1c(-c2ccc(O)cc2)n(Cc2ccc(OCCN3CCCCCC3)cc2)c2ccc(O)cc12
readout type: Population Healthy Nuclei (%)
observed: 49

Below are some compounds; for each one, tell me its Population Healthy Nuclei (%).
1. Cc1nc(-c2cn3c(n2)-c2ccc(-c4cnn(C(C)(C)C(N)=O)c4)cc2OCC3)n(C(C)C)n1
2. CC(C)(O)CNc1ncc(-c2ccnc(Nc3ccnc(Cl)c3)n2)c(CC2CC2)n1

51
51

---

System: Fibroblast
method: Multiplex assay against human fibroblast
Format: toxicity, cell-based
test context: 24 h, 10 µM, compound concentration 10 uM, replicate 1
Exercise: for every item that follows, state its recorded Population Normal (%).
Answers are plain numbers, in %.

Please review the entries below; each comes with its answer.
compound: CN(C)C(=O)/C(C#N)=C/c1ccc(-c2nc3cnc4[nH]ccc4c3n2C2CCCCC2)o1
experimental system: Fibroblast
measurement unit: %
Population Normal (%): 38
--
compound: Cc1[nH]c(/C=C2\C(=O)Nc3ccc(S(=O)(=O)N(C)c4cccc(Cl)c4)cc32)c(C)c1C(=O)N1CCN(C)CC1
experimental system: Fibroblast
measurement unit: %
Population Normal (%): 92
--
compound: O=C1NCN(c2ccccc2)C12CCN(CCCOc1ccc(F)cc1)CC2 [SPIRAMIDE]
experimental system: Fibroblast
measurement unit: %
Population Normal (%): 83
--
compound: CNc1nc(NCc2ccc(NS(C)(=O)=O)cc2Cl)cc(-c2ccccn2)n1
experimental system: Fibroblast
measurement unit: %
Population Normal (%): 72
--
compound: OC1(c2ccc(Cl)cc2)CCN(Cc2c[nH]c3ccccc23)CC1
experimental system: Fibroblast
measurement unit: %
Population Normal (%): 56
--
compound: CN1CCC[C@@H]1CCO[C@](C)(c1ccccc1)c1ccc(Cl)cc1.O=C(O)/C=C/C(=O)O [CLEMASTINE FUMARATE]
experimental system: Fibroblast
measurement unit: %
Population Normal (%): 83
--
compound: Cc1nc(-c2ccc(-c3ccc(C(=O)N4CCc5cc6c(cc54)C4(CCN(C)CC4)CO6)cc3)c(C)c2)no1 [SB-224289]
experimental system: Fibroblast
measurement unit: %
Population Normal (%): 82
--
compound: COc1cccc([C@@H](C)NCCCc2ccccc2Cl)c1.Cl [TECALCET HYDROCHLORIDE]
experimental system: Fibroblast
measurement unit: %
Population Normal (%): 82
--
compound: Cc1csc2c(N[C@@H](C)CN3CCN(S(=O)(=O)c4ccc(Cl)c(Cl)c4)CC3)ncnc12
experimental system: Fibroblast
measurement unit: %
Population Normal (%): 76
--
compound: Cc1cc(C)cc(-c2cnc3cc(Cl)c(-c4cccc(O)c4)cc3c2OCCCN)c1
experimental system: Fibroblast
measurement unit: %
Population Normal (%): 87

Below are some compounds; for each one, tell me its Population Normal (%).
1. CC(C)NCC(O)COc1ccc(CCOCC2CC2)cc1.Cl (stereo not given) [BETAXOLOL HYDROCHLORIDE]
2. C[C@@H](NCCCc1cccc(C(F)(F)F)c1)c1cccc2ccccc12.Cl [CINACALCET HYDROCHLORIDE]
3. C=CC(=O)Nc1ccc2ncnc(Nc3ccc(OCc4cccc(F)c4)c(Cl)c3)c2c1.Cc1ccc(S(=O)(=O)O)cc1
4. Cc1nc(-c2cn3c(n2)-c2ccc(-c4cnn(C(C)(C)C(N)=O)c4)cc2OCC3)n(C(C)C)n1 [TASELISIB]
5. CN(C)CC#Cc1ccc(OCCCc2sc(N3CCc4cccc(C(=O)Nc5nc6ccccc6s5)c4C3)nc2C(=O)O)c(F)c1 [A-1155463]
6. CN1CCCC(n2nc(Cc3ccc(Cl)cc3)c3ccccc3c2=O)CC1.Cl (stereo not given) [AZELASTINE HYDROCHLORIDE]
7. C=CC(=O)Nc1cc2c(Nc3ccc(F)c(Cl)c3)ncnc2cc1OCCCN1CCOCC1.Cl.Cl [CANERTINIB DIHYDROCHLORIDE]

[84, 88, 91, 86, 90, 81, 87]

---

Exercise: for every item that follows, state its recorded Population Normal (%).
Test system: U2OS
method: Multiplex assay against U2OS
Assay type: toxicity, cell-based
test context: human, 24 h, 10 µM, compound concentration 10 uM, replicate 2
# output: numeric value plus its unit

Please review the entries below; each comes with its answer.
molecule: CNc1nc(NCc2ccc(NS(C)(=O)=O)cc2Cl)cc(-c2ccccn2)n1
Population Normal (%): 89%
//
molecule: CN1CCN(CCOc2cc(OC3CCOCC3)c3c(Nc4c(Cl)ccc5c4OCO5)ncnc3c2)CC1
Population Normal (%): 91%
//
molecule: Cc1cc(C)cc(-c2cnc3cc(Cl)c(-c4cccc(O)c4)cc3c2OCCCN)c1
Population Normal (%): 92%
//
molecule: C=CC(=O)Nc1cc2c(Nc3ccc(F)c(Cl)c3)ncnc2cc1OCCCN1CCOCC1.Cl.Cl [CANERTINIB DIHYDROCHLORIDE]
Population Normal (%): 91%

Below are some molecules; for each one, tell me its Population Normal (%).
1. COc1ncc(-c2ccc3nccc(-c4ccnnc4)c3c2)cc1NS(=O)(=O)c1ccc(F)cc1F
2. Cc1sc2c(c1C)C(c1ccc(Cl)cc1)=N[C@@H](CC(=O)OC(C)(C)C)c1nnc(C)n1-2

88%
88%

Which Population Normal (%) value is on record for `CC[C@H](C)C(=O)O[C@H]1C[C@@H](C)C=C2C=C[C@H](C)[C@H](CC[C@@H]3C[C@@H](O)CC(=O)O3)[C@H]21` ? 92%
